Recorded Efficacy by entry
SYSTEM_NAME: GABA-A receptor; alpha-3/beta-3/gamma-2 (Homo sapiens) (UniProt P18507+P28472+P34903)
TEST_METHOD_NOTES: Efficacy was measured as modulation of the current in response to GABA at hGABA alpha-3-beta-3-gamma-2 receptor expressed in Xenopus oocytes
Type: cell-based
DETAILS: Oocyte
Value expressed in %; do not type the unit.

Worked examples follow.
- COMPOUND: "CN(C)Cc1cccc(COc2nn3c(-c4ccccc4)nnc3c3c2C2CCC3CC2)c1"
  SYSTEM_NAME: "GABA-A receptor; alpha-3/beta-3/gamma-2 (Homo sapiens) (UniProt P18507+P28472+P34903)"
  Efficacy (%): -16
- COMPOUND: "OCCCCOc1nn2c(-c3ccccc3)nnc2c2c1C1CCC2CC1"
  SYSTEM_NAME: "GABA-A receptor; alpha-3/beta-3/gamma-2 (Homo sapiens) (UniProt P18507+P28472+P34903)"
  Efficacy (%): 20

I'd like to know its Efficacy. The compound in question is "COc1cccnc1COc1nn2c(-c3ccccc3)nnc2c2c1C1CCC2CC1" 8

# get_value(readout='Efficacy', item= "CCn1ccnc1COc1nn2c(-c3ccccc3)nnc2c2c1C1CCC2CC1" ) 23

Returns the measured Efficacy for the input compound. Input: "Cc1cc(C)n(COc2nn3c(-c4ccccc4)nnc3c3c2C2CCC3CC2)n1" 7

Reported Efficacy, compound "c1ccc(-c2nnc3c4c(c(OCc5cnccn5)nn23)C2CCC4CC2)cc1" : ____ 27

Any idea what Efficacy was measured for "c1ccc(-c2nnc3c4c(c(OCc5ncc[nH]5)nn23)C2CCC4CC2)cc1" ? 29

Query (compound): "Cn1ncnc1COc1nn2c(-c3ccccc3)nnc2c2c1C1CCC2CC1" ; field requested: Efficacy 22

Data request, read-out Efficacy, for "N#Cc1cccnc1COc1nn2c(-c3ccccc3)nnc2c2c1C1CCC2CC1" 17

Given the entry "COC(=O)c1cccnc1COc1nn2c(-c3ccccc3)nnc2c2c1C1CCC2CC1" , report its measured Efficacy. 29

----------
Ki overview
SYSTEM_NAME: GABA-A receptor; alpha-2/beta-3/gamma-2 (Homo sapiens, UniProt P18507+P28472+P47869)
TEST_METHOD_NOTES: Inhibition of [3H]Ro-151788 binding to recombinant human gamma-aminobutyric acid A receptor alpha-2-beta-3-gamma-2 subtype expressed in L (tk-) cells
Please state the figure in nM; there is no need to write the unit.

Consider the reported Ki for these compounds:
- COMPOUND: "c1ccc(-c2nnc3c4c(c(OCc5cscn5)nn23)C2CCC4CC2)cc1"
  SYSTEM_NAME: "GABA-A receptor; alpha-2/beta-3/gamma-2 (Homo sapiens, UniProt P18507+P28472+P47869)"
  Ki [nM]: 21
- COMPOUND: "c1ccc(-c2nnc3c4c(c(COc5ccccn5)nn23)C2CCC4CC2)cc1"
  SYSTEM_NAME: "GABA-A receptor; alpha-2/beta-3/gamma-2 (Homo sapiens, UniProt P18507+P28472+P47869)"
  Ki [nM]: 230
- COMPOUND: "OCCCOc1nn2c(-c3ccccc3)nnc2c2c1C1CCC2CC1"
  SYSTEM_NAME: "GABA-A receptor; alpha-2/beta-3/gamma-2 (Homo sapiens, UniProt P18507+P28472+P47869)"
  Ki [nM]: 310
- COMPOUND: "CCn1ccnc1COc1nn2c(-c3ccccc3)nnc2c2c1C1CCC2CC1"
  SYSTEM_NAME: "GABA-A receptor; alpha-2/beta-3/gamma-2 (Homo sapiens, UniProt P18507+P28472+P47869)"
  Ki [nM]: 2.3

# evaluate next
Reported Ki, compound "Cc1ccc(-c2nc3ccc(C)cn3c2CC(=O)N(C)C)cc1" : ____ 103

----------
Here the recorded Ki is given for each entry.
SYSTEM_NAME: GABA-A receptor; alpha-2/beta-3/gamma-2 (Homo sapiens, UniProt P18507+P28472+P47869)
TEST_METHOD_NOTES: Inhibition of [3H]Ro-151788 binding to recombinant human gamma-aminobutyric acid A receptor alpha-2-beta-3-gamma-2 subtype expressed in L (tk-) cells
Numbers only here, please. The scale is µM.

- COMPOUND: "c1ccc(Cn2ccnc2COc2nn3c(-c4ccccc4)nnc3c3c2C2CCC3CC2)cc1"
  Ki [µM]: 0.0017

Please look up its Ki: "c1ccc(COc2nn3c(-c4ccsc4)nnc3c3c2C2CCC3CC2)nc1" 0.052

----------
SYSTEM_NAME: GABA-A receptor; alpha-5/beta-3/gamma-2 (Homo sapiens, UniProt P18507+P28472+P31644)
Sequence (P18507 whole entry): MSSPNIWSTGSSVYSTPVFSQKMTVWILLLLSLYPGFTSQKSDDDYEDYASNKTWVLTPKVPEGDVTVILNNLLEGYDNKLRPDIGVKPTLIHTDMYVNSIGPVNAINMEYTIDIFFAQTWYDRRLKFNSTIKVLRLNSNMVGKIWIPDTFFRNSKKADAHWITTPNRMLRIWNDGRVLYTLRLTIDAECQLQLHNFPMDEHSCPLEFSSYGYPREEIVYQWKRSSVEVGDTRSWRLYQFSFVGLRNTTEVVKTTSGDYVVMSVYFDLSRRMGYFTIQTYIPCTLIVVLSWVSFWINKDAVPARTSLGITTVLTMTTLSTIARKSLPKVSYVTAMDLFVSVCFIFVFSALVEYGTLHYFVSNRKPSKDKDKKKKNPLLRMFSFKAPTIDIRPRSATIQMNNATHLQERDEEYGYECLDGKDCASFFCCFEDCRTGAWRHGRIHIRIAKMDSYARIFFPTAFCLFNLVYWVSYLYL
Sequence (P28472 whole entry): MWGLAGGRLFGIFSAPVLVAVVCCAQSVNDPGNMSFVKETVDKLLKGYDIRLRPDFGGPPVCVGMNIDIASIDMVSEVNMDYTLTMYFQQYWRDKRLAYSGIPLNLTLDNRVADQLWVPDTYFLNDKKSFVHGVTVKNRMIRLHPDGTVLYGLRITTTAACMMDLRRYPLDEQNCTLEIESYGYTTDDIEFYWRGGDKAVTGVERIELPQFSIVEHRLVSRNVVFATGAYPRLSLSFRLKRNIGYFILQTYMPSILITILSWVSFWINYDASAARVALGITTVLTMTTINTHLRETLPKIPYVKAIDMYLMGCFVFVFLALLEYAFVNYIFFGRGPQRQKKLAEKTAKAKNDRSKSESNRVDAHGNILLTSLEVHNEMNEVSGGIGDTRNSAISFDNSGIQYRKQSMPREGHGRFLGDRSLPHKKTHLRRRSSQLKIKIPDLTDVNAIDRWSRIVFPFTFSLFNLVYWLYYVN
Sequence (P31644 whole entry): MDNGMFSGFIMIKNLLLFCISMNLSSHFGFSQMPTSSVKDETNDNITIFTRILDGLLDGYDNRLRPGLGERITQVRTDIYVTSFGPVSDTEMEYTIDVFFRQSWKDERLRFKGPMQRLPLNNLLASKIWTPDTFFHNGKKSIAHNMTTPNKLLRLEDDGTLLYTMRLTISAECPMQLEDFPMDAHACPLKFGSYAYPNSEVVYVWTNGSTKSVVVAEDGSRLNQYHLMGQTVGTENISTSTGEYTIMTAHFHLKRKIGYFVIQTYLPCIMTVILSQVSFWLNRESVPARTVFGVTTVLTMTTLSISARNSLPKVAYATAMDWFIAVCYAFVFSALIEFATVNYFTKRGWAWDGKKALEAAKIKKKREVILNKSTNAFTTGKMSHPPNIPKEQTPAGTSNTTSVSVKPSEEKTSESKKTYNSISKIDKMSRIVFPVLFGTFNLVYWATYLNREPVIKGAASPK
TEST_METHOD_NOTES: Inhibition of [3H]Ro-151788 binding to recombinant human gamma-aminobutyric-acid A receptor alpha-5-beta-3-gamma-2 subtype expressed in L (tk-) cells
ASSAY_READOUT: pKi
Answer as the number alone; pKi is minus log10 of concentration in mol/L.

- COMPOUND: "c1ccc(-c2nnc3c4c(c(OCc5cccnc5)nn23)C2CCC4CC2)cc1"
  pKi: 8.19
- COMPOUND: "Cc1cnc(COc2nn3c(-c4ccccc4)nnc3c3c2C2CCC3CC2)c(C)c1"
  pKi: 9.70
- COMPOUND: "N#Cc1cccnc1COc1nn2c(-c3ccccc3)nnc2c2c1C1CCC2CC1"
  pKi: 9.27
- COMPOUND: "Cc1cc(C)n(COc2nn3c(-c4ccccc4)nnc3c3c2C2CCC3CC2)n1"
  pKi: 9.59
- COMPOUND: "Cc1cccc(COc2nn3c(-c4ccccc4)nnc3c3c2C2CCC3CC2)n1"
  pKi: 8.59
- COMPOUND: "CN(C(=O)COc1nn2c(-c3ccccc3)nnc2c2c1C1CCC2CC1)c1ccccc1"
  pKi: 8.13
- COMPOUND: "Cc1c[nH]c(COc2nn3c(-c4ccccc4)nnc3c3c2C2CCC3CC2)n1"
  pKi: 9.05
- COMPOUND: "c1ccc(COc2cccnc2COc2nn3c(-c4ccccc4)nnc3c3c2C2CCC3CC2)cc1"
  pKi: 8.15
- COMPOUND: "Cc1ccc(C)c(COc2nn3c(-c4ccccc4)nnc3c3c2C2CCC3CC2)n1"
  pKi: 9.08
- COMPOUND: "OCCCCOc1nn2c(-c3ccccc3)nnc2c2c1C1CCC2CC1"
  pKi: 8.07

# pKi lookup, item Cc1nnc2ccc(-c3cccc(C(F)(F)F)c3)nn12 [CI-218872] 6.34

pKi for "Fc1ccccc1-c1nnc2c3c(c(OCc4ccccn4)nn12)C1CCC3CC1" ? 9.27

If you can, please state the reported pKi value of "OCc1ccc(COc2nn3c(-c4ccccc4)nnc3c3c2C2CCC3CC2)cc1" . 7.96

Report pKi for "Cc1conc1COc1nn2c(-c3ccccc3)nnc2c2c1C1CCC2CC1" please. 8.57

Quick one: pKi for "c1ccc(-c2nnc3c4c(c(OCc5ncccn5)nn23)C2CCC4CC2)cc1" ? 8.04

# input compound: "CCCn1cnc(COc2nn3c(-c4ccccc4)nnc3c3c2C2CCC3CC2)n1" ; wanted: its pKi 8.05

GET /values?readout=pKi&item= "c1ccc(COc2nn3c(-c4ccsc4)nnc3c3c2C2CCC3CC2)nc1" 8.36

# query: pKi of entry "c1ccc(COc2nn3c(-c4ccccc4)nnc3c3c2C2CCC3CC2)cc1" 6.96

Query: pKi; subject: "Cc1csc(COc2nn3c(-c4ccccc4)nnc3c3c2C2CCC3CC2)n1" 8.54

What pKi value was documented for this compound, "c1ccc(-c2nnc3c4c(c(OCc5ncc[nH]5)nn23)C2CCC4CC2)cc1" ? 9.06

# pKi lookup, item "Cc1cnc(COc2nn3c(-c4ccccc4)nnc3c3c2C2CCC3CC2)s1" 8.70

Dear colleague, I am looking for the recorded pKi of the following compound: "c1ccc(-c2nnc3c4c(c(OCc5ncccc5OC5CCC5)nn23)C2CCC4CC2)cc1" 8.38

Could you tell me which pKi is on file for "Cc1nc(COc2nn3c(-c4ccccc4)nnc3c3c2C2CCC3CC2)no1" ? 7.80

Entry under review: "Cc1scnc1COc1nn2c(-c3ccccc3)nnc2c2c1C1CCC2CC1" . Reported pKi? 9.11
